Target: hGIP-R (Homo sapiens)
Construct: expressed in transfected cells; host or cells: HEK-293 clonal cell lines
Assay: Functional hGIP-R Assay (cAMP formation, HTRF)
Format: cell-based
Conditions: cAMP potency; HEK-293 cells expressing hGIP-R; incubated at 37° C. in the presence of 0.1% bovine casein; geometric mean; read-out: Human GIP-R EC50, nM (SEM, n)
EC50 values, listed per item
Could you give me the number in nM? Just the number is fine.

Study these solved cases before continuing.
INSERT INTO assay_data (molecule, property_name, unit_name, measurement) VALUES
  ('COCc1cn2cc(-c3ccc([C@H]4C[C@@]45CCN([C@H](Cc4cnn(C(F)F)c4)C(=O)NC(C)(C)Cn4nc(C(F)(F)F)cc4-c4ccnc(C(C)(C)O)c4)C5=O)c(C)n3)cnc2n1 [Example 160]', 'EC50', 'nM', 1.24),
  ('Cc1cn2cc(-c3ccc([C@H]4C[C@@]45CCN([C@H](Cc4cnn(C(F)F)c4)C(=O)NC(C)(C)Cn4nc(C(F)(F)F)cc4-c4ccc(=O)[nH]n4)C5=O)c(F)c3)cnc2n1 [Example 149]', 'EC50', 'nM', 5.57),
  ('CC(C)(Cn1cc(C(F)(F)F)cn1)NC(=O)[C@@H](Cc1cnc2ncccn12)NC(=O)[C@H]1C[C@@H]1c1ccc(-c2cnc3nc(C4(C)CC4)cn3c2)cc1 [Example 81]', 'EC50', 'nM', 33.1);

Consider Cc1cc(C2CC2C(=O)N[C@H](Cc2cnn(C)c2)C(=O)NC(C)(C)Cc2ccc(F)cc2)ccc1NC(=O)Nc1ccc(F)cc1 (single isomer, unassigned; isomer 2) [Example 50] . Its measured EC50 is 82.3

Record Cn1cc2cc(-c3ccc([C@H]4C[C@@]45CCN([C@H](Cc4cnn(C(F)F)c4)C(=O)NC(C)(C)Cn4nc(C(F)(F)F)cc4-c4ccn(C(F)F)c(=O)c4)C5=O)c(F)c3)cnc2n1 [Example 134] . Reported EC50: 7.63

###

Biological target: hGIP-R (Homo sapiens, UniProt P48546)
Construct: expressed in transfected cells; host or cells: HEK-293 clonal cell lines
Sequence (P48546 22-466): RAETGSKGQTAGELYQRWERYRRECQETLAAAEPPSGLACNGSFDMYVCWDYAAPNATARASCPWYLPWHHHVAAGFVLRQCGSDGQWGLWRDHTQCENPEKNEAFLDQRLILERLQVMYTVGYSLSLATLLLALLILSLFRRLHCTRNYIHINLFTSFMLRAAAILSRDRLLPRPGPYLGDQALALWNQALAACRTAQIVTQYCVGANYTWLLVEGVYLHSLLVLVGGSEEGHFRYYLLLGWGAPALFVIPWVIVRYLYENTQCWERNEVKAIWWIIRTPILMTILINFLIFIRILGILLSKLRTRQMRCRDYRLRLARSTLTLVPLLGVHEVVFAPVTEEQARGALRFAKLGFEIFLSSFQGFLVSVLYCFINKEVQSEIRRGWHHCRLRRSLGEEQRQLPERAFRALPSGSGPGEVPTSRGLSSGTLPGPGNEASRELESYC
Test: Functional hGIP-R Assay (cAMP formation, HTRF)
Assay type: cell-based
Details: cAMP potency; HEK-293 cells expressing hGIP-R; incubated at 37° C. in the presence of 0.1% bovine casein; geometric mean; read-out: Human GIP-R EC50, nM (SEM, n)
I'd appreciate it if you marked entries t when EC50 is lower than 20 nM and f when it is not.

Worked set:
INSERT INTO assay_data (given_smiles, class_name) VALUES
  ('Cn1cc(C[C@H](C(=O)NC(C)(C)Cn2nc(C(F)(F)F)cc2-c2ccc(=O)n(C)c2)N2CC[C@@]3(C[C@@H]3c3ccc(-c4cnc5nn(C)cc5c4)cc3)C2=O)cn1', 'f'),
  ('CC(C)(Cc1ccc(F)cc1)NC(=O)[C@@H](Cc1cnc2ncccn12)NC(=O)[C@H]1C[C@@H]1c1ccc(NC(=O)C2CCC(F)(F)CC2)cc1', 't'),
  ('Cc1ncc(-c2cc(C(F)(F)F)nn2CC(C)(C)NC(=O)[C@@H](Cc2cnn(C(F)F)c2)NC(=O)[C@H]2C[C@@H]2c2ccc(-c3cnc4nn(C)cc4c3)nc2C(F)(F)F)cn1', 't'),
  ('Cn1cc(C[C@H](C(=O)NC(C)(C)Cn2nc(C(F)(F)F)cc2-c2cn[nH]n2)N2CC[C@@]3(C[C@@H]3c3ccc(-c4cnc5nn(C)cc5c4)cc3)C2=O)cn1', 'f');

Query string: Could you please tell me whether EC50 recorded for "CC(C)(Cn1cc(C(F)(F)F)cn1)NC(=O)[C@@H](Cc1cnc2ncccn12)NC(=O)[C@H]1C[C@@H]1c1ccc(-c2cnc3nc(C4CC(F)(F)C4)cn3c2)cc1" is less than 20 nM?
Result string: t
